B1: TPR 5TU (parent)
chain: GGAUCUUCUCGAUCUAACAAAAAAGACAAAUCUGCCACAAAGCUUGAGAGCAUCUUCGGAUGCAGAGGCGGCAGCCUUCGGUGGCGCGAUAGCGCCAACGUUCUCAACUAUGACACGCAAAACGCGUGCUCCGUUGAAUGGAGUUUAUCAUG

Variants of: B1
assay summary: polymerase ribozyme fitness, log enrichment relative to wild type (log ratio); higher = more active; in vitro selection for triplet polymerase activity
This sample holds only a part of the variants without activity.
assay metric: polymerase ribozyme fitness (log ratio)
Lab note: record the figure alone, no unit after it.

variant_string="C5G C38U G50A" reported_result=-1.8

Given the entry A22U A41U , report its measured polymerase ribozyme fitness (log ratio).
0.0369

Given the entry C38A C95A C118A , report its measured polymerase ribozyme fitness (log ratio).
-1.55

Given the entry A3U A22C C87A G92U , report its measured polymerase ribozyme fitness (log ratio).
-0.18

Given the entry A17G C57A A91G C95G A122U , report its measured polymerase ribozyme fitness (log ratio).
-4.04

Given the entry A21G G25A U56A C93U A119G A120C U146C , report its measured polymerase ribozyme fitness (log ratio).
-3.11

Given the entry G94A G152C , report its measured polymerase ribozyme fitness (log ratio).
-3.08

Given the entry G50A C93U G152A , report its measured polymerase ribozyme fitness (log ratio).
-3.09

Given the entry A89G C125U C132U , report its measured polymerase ribozyme fitness (log ratio).
-1.73
